Reported Kd values for the following binders.
Target: T1, human TL1A (Fitzgerald #30R-AT070) (human, UniProt O95150 72-251, limits assumed)
T1 construct: Coated on the ELISA plate at 1 ug/mL; also called TNFSF15
T1 sequence (looked up): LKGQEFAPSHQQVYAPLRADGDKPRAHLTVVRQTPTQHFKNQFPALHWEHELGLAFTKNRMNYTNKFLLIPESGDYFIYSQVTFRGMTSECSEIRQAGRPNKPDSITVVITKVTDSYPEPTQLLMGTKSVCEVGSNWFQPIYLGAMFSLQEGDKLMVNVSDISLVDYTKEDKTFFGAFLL
Assay: ELISA titration, coated human TL1A, culture supernatant

Binder	Kd [nM]
A138 (antibody, human IgG1, V domains shown, human IgG1/kappa (pFuse vectors), culture supernatant) VH: QVQLVQSGAEVKKPGASVKVSCKASGFDIQDTYMHWVRQAPGQGLEWMGRIEPASGHIKYDPKFQVRATMTRDTSTSTVYMELSSLRSEDTAVYYCARSGGLPDWWGQGTTVTVSS VL: EIVLTQSPGTLSLSPGERATLSCRASSSVSYMYWYQQKPGQAPRLLIYATSNLASGIPDRFSGSGSGTDFTLTISRLEPEDFAVYYCQQWSRNPRTFGGGTKLEIK	0.069
A114 (antibody, human IgG1, V domains shown, human IgG1/kappa (pFuse vectors), culture supernatant) VH: QVQLVQSGAEVKKPGASVKVSCKASGFDIQDTYMHWVRQAPGQGLEWMGRIEPASGHIKYDPKFQVRVTMTRDTSTSTVYMELSSLRSEDTAVYYCARSGGLPDWWGQGTTVTVSS VL: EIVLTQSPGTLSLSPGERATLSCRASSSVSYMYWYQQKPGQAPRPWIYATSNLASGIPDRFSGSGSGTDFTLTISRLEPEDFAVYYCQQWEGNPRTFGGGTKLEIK	0.051
